Biological target: Coagulation factor X (Rattus norvegicus)
endpoint_name: pKi
On this scale, pKi is minus log10 of a concentration expressed in M (mol/L).

Prompt: Under Coagulation factor X (Rattus norvegicus): pKi value of `CN1CCc2nc(C(=O)N[C@@H]3C[C@@H](C(=O)N(C)C)CC[C@@H]3NC(=O)c3cc4cc(Cl)ccc4[nH]3)sc2C1` ?
Response: 8.06

----------
Assay: AUC in monkey at 1 mg/kg, po by discrete dosing
Format: ADME, organism-based, Macaca mulatta
Design: dose 1 mg/kg, route oral
Settings: rhesus monkey, plasma
endpoint_name: AUC (ng·h/mL)
Give the quantity in ng·h/mL, number only.

[[record]]
input_smiles = "COCCN(C)C(=O)[C@H]1CC[C@H](NC(=O)c2cc3cc(Cl)ccc3[nH]2)[C@H](NC(=O)c2nc3c(s2)CN(C)CC3)C1"
unit_info = "ng·h/mL"
measured_number = 23

[[record]]
input_smiles = "CCNC(=O)[C@H]1CC[C@H](NC(=O)c2cc3cc(Cl)ccc3[nH]2)[C@H](NC(=O)c2nc3c(s2)CN(C)CC3)C1"
unit_info = "ng·h/mL"
measured_number = 312


Next item in the queue.
Prompt: AUC for `CCN(CC)C(=O)[C@H]1CC[C@H](NC(=O)c2cc3cc(Cl)ccc3[nH]2)[C@H](NC(=O)c2nc3c(s2)CN(C)CC3)C1` ?
Response: 3

----------
The entries below come with measured Activity values attached.
Test system: Plasma
Test: Anticoagulant activity in human plasma assessed as concentration required to double prothrombin time
Type: functional

Before answering, review these 3 worked examples.
[[record]]
input_smiles = "CN1CCc2nc(C(=O)N[C@@H]3C[C@@H](CS(C)(=O)=O)CC[C@@H]3NC(=O)c3cc4cc(Cl)ccc4[nH]3)sc2C1"
result = "0.54 µM"

[[record]]
input_smiles = "CN1CCc2nc(C(=O)N[C@@H]3C[C@@H](C(=O)N(C)C)CC[C@H]3NC(=O)c3cc4cc(Cl)ccc4[nH]3)sc2C1"
result = "0.83 µM"

[[record]]
input_smiles = "CCCN(CCC)C(=O)[C@H]1CC[C@H](NC(=O)c2cc3cc(Cl)ccc3[nH]2)[C@H](NC(=O)c2nc3c(s2)CN(C)CC3)C1"
result = "1.3 µM"


Prompt: Under Plasma: Activity value of `COCCN(C)C(=O)[C@H]1CC[C@H](NC(=O)c2cc3cc(Cl)ccc3[nH]2)[C@H](NC(=O)c2nc3c(s2)CN(C)CC3)C1` ?
Response: 0.3 µM

Prompt: Under Plasma: Activity value of `CCN(C)C(=O)[C@H]1CC[C@H](NC(=O)c2cc3cc(Cl)ccc3[nH]2)[C@H](NC(=O)c2nc3c(s2)CN(C)CC3)C1` ?
Response: 0.4 µM
